Attribution: ChEMBL document CHEMBL1132770

- test.system: Kappa-type opioid receptor (Homo sapiens, UniProt P41145)
- Sequence (P41145 whole entry): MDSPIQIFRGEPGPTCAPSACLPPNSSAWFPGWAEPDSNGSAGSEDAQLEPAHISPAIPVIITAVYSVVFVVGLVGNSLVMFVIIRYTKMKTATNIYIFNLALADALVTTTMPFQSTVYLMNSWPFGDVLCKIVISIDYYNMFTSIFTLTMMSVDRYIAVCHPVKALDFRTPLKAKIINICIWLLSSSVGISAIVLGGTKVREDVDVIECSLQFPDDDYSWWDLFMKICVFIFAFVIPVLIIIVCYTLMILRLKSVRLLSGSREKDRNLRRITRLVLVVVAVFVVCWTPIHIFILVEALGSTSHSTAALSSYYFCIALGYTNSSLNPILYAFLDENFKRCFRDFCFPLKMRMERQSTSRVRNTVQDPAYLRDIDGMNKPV
- test.details: Compound was evaluated for its binding affinity by displacing [3H]U-69593 to human cloned Kappa opioid receptor transfected into CHO cells using [35S]GTP-gamma-S, assay
- Format: functional, cell-based
reported.property: Ki (nM)

[[record]]
compound = "CCCCC(=N)NCCc1ccc2[nH]c3c(c2c1)C[C@@]1(O)C2Cc4ccc(O)c5c4C1(CCN2CC1CC1)C3O5 (some centres not stated)"
reported_property = "Ki"
measurement = 0.17

[[record]]
compound = "NCCc1ccc2[nH]c3c(c2c1)C[C@@]1(O)C2Cc4ccc(O)c5c4C1(CCN2CC1CC1)C3O5 (some centres not stated)"
reported_property = "Ki"
measurement = 0.12


* * *

# Ki per entry
- test.system: Delta-type opioid receptor (Homo sapiens)
- test.details: Compound was evaluated for functional opioid activity by stimulation of [35S]GTP-gamma-S, in cloned human Opioid receptor delta 1 transfected into CHO cells
- Assay type: cell-based
reported.property: Ki (nM)

[[record]]
compound = "NCCc1ccc2[nH]c3c(c2c1)C[C@@]1(O)C2Cc4ccc(O)c5c4C1(CCN2CC1CC1)C3O5 (some centres not stated)"
reported_property = "Ki"
measurement = 3.79

[[record]]
compound = "CCCCC(=N)NCCc1ccc2[nH]c3c(c2c1)C[C@@]1(O)C2Cc4ccc(O)c5c4C1(CCN2CC1CC1)C3O5 (some centres not stated)"
reported_property = "Ki"
measurement = 3.31


* * *

- test.system: Mu-type opioid receptor (Homo sapiens, UniProt P35372)
- Sequence (P35372 whole entry): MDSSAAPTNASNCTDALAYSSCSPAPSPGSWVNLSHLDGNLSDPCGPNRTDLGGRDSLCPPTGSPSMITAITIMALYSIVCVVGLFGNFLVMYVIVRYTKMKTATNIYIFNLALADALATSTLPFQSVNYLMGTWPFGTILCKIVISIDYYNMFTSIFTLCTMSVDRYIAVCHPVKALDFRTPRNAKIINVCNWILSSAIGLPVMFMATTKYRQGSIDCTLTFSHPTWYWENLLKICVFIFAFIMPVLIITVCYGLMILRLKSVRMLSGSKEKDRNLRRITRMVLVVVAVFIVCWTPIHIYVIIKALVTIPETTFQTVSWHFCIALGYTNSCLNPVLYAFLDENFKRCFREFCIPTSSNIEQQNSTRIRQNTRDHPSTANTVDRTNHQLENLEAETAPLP
- test.details: Compound was evaluated for its binding affinity against CHO cells transfected with cloned human Opioid receptor mu 1 by displacing [3H]DAMGO
- Assay type: cell-based
reported.property: Ki (nM)

[[record]]
compound = "NCCc1ccc2[nH]c3c(c2c1)C[C@@]1(O)C2Cc4ccc(O)c5c4C1(CCN2CC1CC1)C3O5 (some centres not stated)"
reported_property = "Ki"
measurement = 29.6

[[record]]
compound = "CCCCC(=N)NCCc1ccc2[nH]c3c(c2c1)C[C@@]1(O)C2Cc4ccc(O)c5c4C1(CCN2CC1CC1)C3O5 (some centres not stated)"
reported_property = "Ki"
measurement = 219


* * *

- test.system: Delta-type opioid receptor (Homo sapiens, UniProt P41143)
- Sequence (P41143 whole entry): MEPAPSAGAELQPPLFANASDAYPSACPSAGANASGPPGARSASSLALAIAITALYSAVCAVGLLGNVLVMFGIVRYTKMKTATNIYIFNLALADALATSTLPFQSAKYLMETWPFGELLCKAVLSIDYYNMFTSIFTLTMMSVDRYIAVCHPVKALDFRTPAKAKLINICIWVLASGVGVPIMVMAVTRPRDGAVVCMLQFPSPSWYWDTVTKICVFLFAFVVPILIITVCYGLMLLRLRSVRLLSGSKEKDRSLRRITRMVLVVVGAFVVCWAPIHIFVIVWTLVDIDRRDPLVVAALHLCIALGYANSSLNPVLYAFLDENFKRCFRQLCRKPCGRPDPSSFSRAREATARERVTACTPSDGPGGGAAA
- test.details: Compound was evaluated for its binding affinity to CHO cells expressing cloned human Opioid receptor delta 1 by displacement of [3H]Cl-DPDPE
- Type: cell-based
pKi: −log10 of the molar value.
reported.property: pKi

[[record]]
compound = "CCCCC(=N)NCCc1ccc2[nH]c3c(c2c1)C[C@@]1(O)C2Cc4ccc(O)c5c4C1(CCN2CC1CC1)C3O5 (some centres not stated)"
measurement = 7.42

[[record]]
compound = "NCCc1ccc2[nH]c3c(c2c1)C[C@@]1(O)C2Cc4ccc(O)c5c4C1(CCN2CC1CC1)C3O5 (some centres not stated)"
measurement = 7.55

